System: HepG2 cells
Assay: MTT assay (mitochondrial activity), 72 h exposure
Type: cell-based, human
Conditions: Homo sapiens, mean ± SD, n = 3
Protocol: The human hepatoma (HepG2) and colorectal adenocarcinoma (Caco-2) cells were purchased from the American Type Culture Collection: ATCC HB-8065 and ATCC HTB-37, respectively. These cells were cultured in Minimum Essential Medium Eagle (MEME) (ATCC). […] Cytotoxicity was assessed after 72 h of exposure of the cells to compounds. […] The metabolic activity of living cells was assessed by the measurement of the activity of dehydrogenases. […] Cytotoxicity was expressed as a percentage of the negative control. […]
PARAMETER: IC50

Record summary for `Cc1ncc([N+](=O)[O-])n1CCO` : reported IC50 = > 10 µM

// provenance: paper PMC8869984
